Data provenance is patent US12459912B2.

molecular target: UniProt:P06239; assay: LCK/Binding (KINOMEscan)
Sequence (P06239 whole entry): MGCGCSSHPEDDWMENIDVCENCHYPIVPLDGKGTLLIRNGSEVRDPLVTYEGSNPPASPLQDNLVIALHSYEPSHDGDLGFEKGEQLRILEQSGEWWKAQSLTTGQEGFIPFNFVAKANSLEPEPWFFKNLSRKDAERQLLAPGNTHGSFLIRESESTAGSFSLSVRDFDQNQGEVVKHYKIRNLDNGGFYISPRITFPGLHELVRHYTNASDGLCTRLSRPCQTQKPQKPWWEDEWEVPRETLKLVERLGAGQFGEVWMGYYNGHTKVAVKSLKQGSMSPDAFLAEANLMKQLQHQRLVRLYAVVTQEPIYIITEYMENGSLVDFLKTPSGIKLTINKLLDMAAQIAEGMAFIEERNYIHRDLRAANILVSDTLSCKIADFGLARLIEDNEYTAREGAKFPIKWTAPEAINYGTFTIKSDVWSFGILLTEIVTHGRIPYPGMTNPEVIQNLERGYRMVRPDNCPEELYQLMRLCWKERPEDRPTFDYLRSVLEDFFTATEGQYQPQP
pEC50: −log10 of the molar value.
ENDPOINT_NAME: pEC50

The compound identified as CNC(C)Cc1ccc2ccsc2c1 (stereo not shown) [drawing 522] registered its pEC50 at < 5.00
